Molecular target: Human Cbl-b (residues 40-426) (Homo sapiens (Human))
Sequence (Q13191 40-426): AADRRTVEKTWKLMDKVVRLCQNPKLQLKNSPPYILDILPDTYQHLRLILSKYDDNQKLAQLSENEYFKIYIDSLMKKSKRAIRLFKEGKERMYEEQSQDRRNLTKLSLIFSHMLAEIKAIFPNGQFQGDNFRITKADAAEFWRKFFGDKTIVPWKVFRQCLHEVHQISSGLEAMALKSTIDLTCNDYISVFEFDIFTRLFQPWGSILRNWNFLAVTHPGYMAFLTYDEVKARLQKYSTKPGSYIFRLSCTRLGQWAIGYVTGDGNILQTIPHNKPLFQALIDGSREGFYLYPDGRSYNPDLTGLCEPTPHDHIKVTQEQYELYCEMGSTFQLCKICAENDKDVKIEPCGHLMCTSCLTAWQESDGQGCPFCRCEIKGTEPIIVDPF
Experiment: Cbl-b SPR assay
Assay type: binding
Settings: C-cbl SPR Kd vs Cbl-b SPR Kd
Catalogue of Fold of selectivity values
Kindly provide the numeric value in × only, without the unit symbol.

// query Identify measured Fold of selectivity corresponding to `CO[C@H]1C[C@](c2cccc(N3Cc4c(cc(CNC(C)C)cc4C(F)(F)F)C3=O)c2)(c2nncn2C)C1`
// result 8.2

More entries:
// query Identify measured Fold of selectivity corresponding to `CO[C@H]1C[C@](c2cccc(N3Cc4c(cc(CN5CC(C)(O)C5)cc4C(F)(F)F)C3=O)c2)(c2nncn2C)C1`
// result 8.7

// query Identify measured Fold of selectivity corresponding to `Cn1cnnc1C1(c2cccc(N3Cc4c(cc(CNC5(C)CCC5)cc4C(F)(F)F)C3=O)c2)CN(C2COC2)C1`
// result 8.6

// query Identify measured Fold of selectivity corresponding to CC(=O)N1CC([C@@H](c2cccc(N3Cc4c(cc(CNC5(C)CCC5)cc4C(F)(F)F)C3=O)c2)c2nncn2C)C1 (single isomer, unassigned)
// result 3.4

// query Identify measured Fold of selectivity corresponding to `CO[C@H]1C[C@](c2cccc(N3Cc4c(cc(CNCCOC(F)F)cc4C(F)(F)F)C3=O)c2)(c2nncn2C)C1`
// result 17

// query Identify measured Fold of selectivity corresponding to CO[C@H]1C[C@@](c2cc(NC3CCCC3)nc(N3Cc4c(cc(CNC5(C)CCC5)cc4C(F)(F)F)C3=O)c2)(c2nncn2C)C1 [Compound 8]
// result 6.9
